biological target: human full length PIK3KA H1047R mutant (p110α/p85α complex) (Homo sapiens, UniProt P42336, H1047R); construct: Recombinant, catalytically active human full length PIK3KA Wild-type and H1047R mutant were purchased as 1:1 complex; 6xHis (N); purchased EMD Millipore Sigma 14-792M; assay: PI3K-alpha kinase (PIK3CA) biochemical activity, H1047R mutant, ADP-Glo; conditions: PI3K-α (PIK3CA) biochemical, H1047R mutant, Soy PI lipid substrate
Sequence (P42336 whole entry H1047R): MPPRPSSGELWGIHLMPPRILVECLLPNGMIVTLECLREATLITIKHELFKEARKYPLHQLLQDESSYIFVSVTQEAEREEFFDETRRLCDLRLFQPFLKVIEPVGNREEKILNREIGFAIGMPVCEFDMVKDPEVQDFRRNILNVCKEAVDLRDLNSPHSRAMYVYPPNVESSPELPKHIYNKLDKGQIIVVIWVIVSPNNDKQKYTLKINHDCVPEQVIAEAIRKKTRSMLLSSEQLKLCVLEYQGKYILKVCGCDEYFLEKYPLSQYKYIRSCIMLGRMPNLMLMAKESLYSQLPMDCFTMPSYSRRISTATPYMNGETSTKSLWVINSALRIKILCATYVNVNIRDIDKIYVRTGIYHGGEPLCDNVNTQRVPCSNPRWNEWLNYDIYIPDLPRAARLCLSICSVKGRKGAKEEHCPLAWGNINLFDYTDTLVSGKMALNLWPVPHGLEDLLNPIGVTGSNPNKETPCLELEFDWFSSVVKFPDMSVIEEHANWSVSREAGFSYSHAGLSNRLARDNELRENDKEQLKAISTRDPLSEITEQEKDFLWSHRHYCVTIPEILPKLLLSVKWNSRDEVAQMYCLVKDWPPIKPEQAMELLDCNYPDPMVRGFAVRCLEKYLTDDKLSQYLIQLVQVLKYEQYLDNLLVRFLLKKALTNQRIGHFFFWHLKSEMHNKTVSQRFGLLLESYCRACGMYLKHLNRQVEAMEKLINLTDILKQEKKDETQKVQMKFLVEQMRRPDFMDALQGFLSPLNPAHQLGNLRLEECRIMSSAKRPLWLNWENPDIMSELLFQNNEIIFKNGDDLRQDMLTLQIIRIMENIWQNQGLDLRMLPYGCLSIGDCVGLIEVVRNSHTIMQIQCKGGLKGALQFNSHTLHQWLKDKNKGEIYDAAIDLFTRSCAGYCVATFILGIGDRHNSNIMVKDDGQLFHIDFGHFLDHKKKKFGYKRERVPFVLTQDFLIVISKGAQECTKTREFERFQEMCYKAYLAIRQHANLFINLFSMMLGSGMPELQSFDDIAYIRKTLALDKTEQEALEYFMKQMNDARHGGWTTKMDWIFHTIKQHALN
Sequence (P27986 whole entry partner): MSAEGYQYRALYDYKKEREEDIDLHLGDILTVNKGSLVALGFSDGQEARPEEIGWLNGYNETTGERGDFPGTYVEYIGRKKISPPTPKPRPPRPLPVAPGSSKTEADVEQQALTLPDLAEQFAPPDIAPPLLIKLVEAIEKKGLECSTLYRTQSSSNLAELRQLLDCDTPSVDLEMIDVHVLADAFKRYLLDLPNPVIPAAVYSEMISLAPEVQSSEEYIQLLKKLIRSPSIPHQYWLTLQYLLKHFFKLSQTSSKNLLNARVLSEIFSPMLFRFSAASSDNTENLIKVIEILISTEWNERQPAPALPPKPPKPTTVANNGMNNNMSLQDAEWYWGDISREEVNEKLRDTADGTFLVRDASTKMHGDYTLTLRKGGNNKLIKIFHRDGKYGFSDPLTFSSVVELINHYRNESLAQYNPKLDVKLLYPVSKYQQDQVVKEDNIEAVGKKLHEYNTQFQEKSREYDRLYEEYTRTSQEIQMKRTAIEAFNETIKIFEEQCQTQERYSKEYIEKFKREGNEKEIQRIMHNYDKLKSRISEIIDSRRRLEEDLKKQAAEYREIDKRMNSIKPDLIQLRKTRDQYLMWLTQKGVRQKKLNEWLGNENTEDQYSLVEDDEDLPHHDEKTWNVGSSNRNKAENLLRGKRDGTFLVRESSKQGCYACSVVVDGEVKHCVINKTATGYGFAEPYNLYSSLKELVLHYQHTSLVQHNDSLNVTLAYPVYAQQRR
pIC50: −log10 of the molar value.
Listing: pIC50 of selected molecules

Before answering, review these 6 worked examples.
INSERT INTO assay_data (molecule, reported_measurement) VALUES
  ('Cc1c(-c2ccc(F)cc2F)oc2c([C@@H](C)Nc3ccc(Cl)nc3C(=O)O)cc(C(F)(F)F)cc2c1=O', '> 6.30'),
  ('Cc1cc([C@@H](C)Nc2ccc(Cl)nc2C(=O)O)c2oc(-c3ccc(F)c(F)c3)c(C)c(=O)c2c1', '> 6.30'),
  ('Cc1cc([C@@H](C)Nc2ccc(C(F)(F)F)nc2C(=O)O)c2oc(-c3ccccc3)c(C)c(=O)c2c1', '> 6.30'),
  ('Cc1cc(C(C)Nc2ccccc2C(=O)O)c2oc(-c3ccccc3)c(C#N)c(=O)c2c1 (single isomer, unassigned; isomer 2) [Example 62]', '> 6.30'),
  ('Cc1cc([C@@H](C)Nc2cccnc2C(=O)O)c2oc(-c3ccc(F)c(F)c3)c(C)c(=O)c2c1', '5.30 to 6.00'),
  ('Cc1cc([C@@H](C)Nc2cccnc2C(=O)O)c2oc(-c3cccc(C#N)c3)c(C)c(=O)c2c1', '6.00 to 6.30');

Prompt line: Look at this molecule and give its reported pIC50. "Cc1cc([C@@H](C)Nc2ccc(C)nc2C(=O)O)c2oc(-c3ccccc3)c(C)c(=O)c2c1"
Response line: > 6.30

Prompt line: Look at this molecule and give its reported pIC50. "Cc1cc([C@@H](C)Nc2ccc(C(F)(F)F)cc2C(=O)O)c2oc(-c3cccc(C#N)c3)c(C)c(=O)c2c1"
Response line: > 6.30

Prompt line: Look at this molecule and give its reported pIC50. "COc1ccc(N[C@H](C)c2cc(C)cc3c(=O)c(C)c(-c4ccccc4)oc23)c(C(=O)O)n1"
Response line: > 6.30

Prompt line: Look at this molecule and give its reported pIC50. "Cc1cc([C@@H](C)Nc2ccccc2C(=O)O)c2oc(-c3cccc(-c4cc[nH]n4)c3)c(C)c(=O)c2c1"
Response line: 6.00 to 6.30

Prompt line: Look at this molecule and give its reported pIC50. "Cc1cc([C@@H](C)Nc2ccc(Cl)nc2C(=O)O)c2oc(-c3ccccc3F)c(C)c(=O)c2c1"
Response line: > 6.30

Prompt line: Look at this molecule and give its reported pIC50. "Cc1c(-c2ccc(F)c(F)c2)oc2c([C@@H](C)Nc3ccc(Cl)nc3C(=O)O)cc(C(F)(F)F)cc2c1=O"
Response line: > 6.30

Prompt line: Look at this molecule and give its reported pIC50. Cc1cc(C(C)Nc2sc(C)nc2C(=O)O)c2oc(-c3ccccc3)cc(=O)c2c1 (centres unmarked)
Response line: > 6.30

Prompt line: Look at this molecule and give its reported pIC50. "Cc1c(-c2cccc(C#N)c2)oc2c([C@@H](C)Nc3ccc(Cl)nc3C(=O)O)cc(C(F)(F)F)cc2c1=O"
Response line: > 6.30

Prompt line: Look at this molecule and give its reported pIC50. "Cc1cc([C@@H](C)Nc2ccc(C(F)(F)F)nc2C(=O)O)c2oc(-c3ccccc3)cc(=O)c2c1"
Response line: > 6.30

Prompt line: Look at this molecule and give its reported pIC50. "Cc1cc([C@@H](C)Nc2cccc(F)c2C(=O)O)c2oc(-c3ccc(F)cc3F)c(C)c(=O)c2c1"
Response line: > 6.30

Prompt line: Look at this molecule and give its reported pIC50. "Cc1c(-c2cccc(C(F)F)c2)oc2c([C@@H](C)Nc3ccccc3C(=O)O)cc(F)cc2c1=O"
Response line: > 6.30

Prompt line: Look at this molecule and give its reported pIC50. "Cc1cc([C@@H](C)Nc2ccc(Br)cc2C(=O)O)c2oc(-c3ccccc3)c(C)c(=O)c2c1"
Response line: > 6.30

Prompt line: Look at this molecule and give its reported pIC50. "C[C@@H](Nc1ccccc1C(=O)O)c1cc(C(F)(F)F)cc2c(=O)cc(-c3ccc(F)cc3F)oc12"
Response line: > 6.30

Prompt line: Look at this molecule and give its reported pIC50. Cc1cc(C(C)Nc2cccc(F)c2C(=O)O)c2oc(-c3ccccc3F)cc(=O)c2c1 (centres unmarked) [Example 97]
Response line: > 6.30

Prompt line: Look at this molecule and give its reported pIC50. Cc1cc(C(C)Nc2cccc(F)c2C(=O)O)c2oc(-c3ccccc3F)cc(=O)c2c1 (single isomer, unassigned; isomer 2) [Example 108]
Response line: 5.00 to 5.30

Prompt line: Look at this molecule and give its reported pIC50. "Cc1cc([C@@H](C)Nc2cccnc2C(=O)O)c2oc(-c3cccc(F)c3)c(C)c(=O)c2c1"
Response line: 6.00 to 6.30

Prompt line: Look at this molecule and give its reported pIC50. Cc1cc(C(C)Nc2cccnc2C(=O)O)c2oc(-c3ccccc3F)c(C)c(=O)c2c1 (centres unmarked)
Response line: 5.30 to 6.00

---

Listing: IC50 of selected compounds
molecular target: human full length PIK3KA Wild-type (p110α/p85α complex) (Homo sapiens, UniProt P42336); construct: Recombinant, catalytically active human full length PIK3KA Wild-type and H1047R mutant were purchased as 1:1 complex; 6xHis (N); purchased EMD Millipore Sigma 14-602M; assay: PI3K-alpha kinase (PIK3CA) biochemical activity, wild-type, ADP-Glo; conditions: PI3K-α (PIK3CA) biochemical, Soy PI lipid substrate
Sequence (P42336 whole entry): as the sequence (P42336 whole entry H1047R) above, with R1047H counted along it
Sequence (P27986 whole entry partner): as the sequence (P27986 whole entry partner) above

Before answering, review these 4 worked examples.
INSERT INTO measurements (compound, study_target, reported_measurement) VALUES
  ('Cc1cc([C@@H](C)Nc2ccc(C(F)(F)F)nc2C(=O)O)c2oc(-c3cccc(C#N)c3)c(C)c(=O)c2c1', 'human full length PIK3KA Wild-type (p110α/p85α complex) (Homo sapiens, UniProt P42336)', '1 to 5 µM'),
  ('COc1cccc(-c2cc(=O)c3cc(C)cc([C@@H](C)Nc4ccccc4C(=O)O)c3o2)c1', 'human full length PIK3KA Wild-type (p110α/p85α complex) (Homo sapiens, UniProt P42336)', '0.5 to 1 µM'),
  ('Cc1c(-c2cccc(C(F)F)c2)oc2c([C@@H](C)Nc3ccccc3C(=O)O)cc(F)cc2c1=O', 'human full length PIK3KA Wild-type (p110α/p85α complex) (Homo sapiens, UniProt P42336)', '5 to 10 µM'),
  ('Cc1cc([C@@H](C)Nc2ccc(Cl)nc2C(=O)O)c2oc(-c3ccccc3F)c(C)c(=O)c2c1', 'human full length PIK3KA Wild-type (p110α/p85α complex) (Homo sapiens, UniProt P42336)', '1 to 5 µM');

Prompt line: Look at this compound and give its reported IC50. Cc1cc(C(C)Nc2ccccc2C(=O)O)c2oc(-c3cccc(C(C)(C)C#N)c3)cc(=O)c2c1 (centres unmarked) [Example 3]
Response line: 5 to 10 µM

Prompt line: Look at this compound and give its reported IC50. "Cc1cc([C@@H](C)Nc2ccc(C)nc2C(=O)O)c2oc(-c3ccc(F)c(F)c3)c(C)c(=O)c2c1"
Response line: 1 to 5 µM

Prompt line: Look at this compound and give its reported IC50. Cc1cc(C(C)Nc2ccccc2C(=O)O)c2oc(-c3ccccc3)c(C#N)c(=O)c2c1 (centres unmarked) [Example 10]
Response line: 1 to 5 µM

Prompt line: Look at this compound and give its reported IC50. "Cc1cc([C@@H](C)Nc2ccc(C(F)(F)F)cc2C(=O)O)c2oc(-c3ccccc3)c(C)c(=O)c2c1"
Response line: 1 to 5 µM
